Source: patent US12011444B2

Reported pIC50 values follow for various compounds
- target-or-system: EP2 (Homo sapiens (Human), UniProt P43116);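 further: antagonism of PGE2-stimulated cAMP accumulation in SF295 human glioblastoma cells with endogenous EP2, cAMP read by HTRF, expressed relative to DMSO control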
- Sequence (P43116 whole entry): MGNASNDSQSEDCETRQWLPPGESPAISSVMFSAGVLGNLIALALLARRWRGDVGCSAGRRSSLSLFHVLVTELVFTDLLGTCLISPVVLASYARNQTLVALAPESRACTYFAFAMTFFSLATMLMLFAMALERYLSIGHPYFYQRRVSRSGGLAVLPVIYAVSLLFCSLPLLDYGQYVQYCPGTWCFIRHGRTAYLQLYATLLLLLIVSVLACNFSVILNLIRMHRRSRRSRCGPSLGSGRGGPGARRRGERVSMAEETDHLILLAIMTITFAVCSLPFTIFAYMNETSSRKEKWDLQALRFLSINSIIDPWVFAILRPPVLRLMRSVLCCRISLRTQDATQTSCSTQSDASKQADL
pIC50: −log10 of the molar value.
quantity-kind: pIC50

> print(dat)
                                   compound  recorded.value
1  COc1cc(F)cc2c1cc(C)n2CCNc1cc(-c2ccc(-c3ncc(F)cn3)cc2)ncn1 [Example 762]            7.01
2  Cc1cc(F)c(F)c2c1cc(C)n2CCNc1cc(-c2ccc(-c3cncn3C)cc2)ncn1 [compound 576]            6.40
3  COc1ccc(F)c2c1cc(C)n2CCNc1cc(-c2cccc(-n3cccn3)c2)ncn1 [compound 556]            7.27
4  CCCN1Cc2cc(-c3cc(NCCn4c(C)cc5c(OC)ccc(F)c54)ncn3)ccc2C1=O [compound 466]            7.48
5  COc1cc(F)c(F)c2c1cc(C)n2CCNc1cc(-c2ccc(C(=O)CC#N)cc2)ncn1 [compound 711]            7.80
6  COc1cc(F)c(F)c2c1cc(C)n2CCNc1cc(-c2cc(C(F)(F)F)c(C(=O)O)s2)ncn1 [compound 525]            7.42
7  CCOc1cc(-c2cc(NCCn3c(C)cc4c(OC)cccc43)ncn2)cc(F)c1C(=O)O [compound 407]            7.82
8  COc1ccc(Cl)c2c1cc(C)n2CCNc1cc(-c2ccc(C(=O)O)c(CC(C)C)c2)ncn1 [compound 536]            7.57
